Below is a list of entries, each paired with its recorded pIC50 value.
target: HLA-A*02:02; test: IEDB peptide-MHC binding, purified MHC/competitive/radioactivity; bounds were set here for any values at or beyond the usual limits of such assays; details: source organism: Mammarenavirus lassaense
The value called pIC50 is obtained by taking minus log10 of the concentration in mol/L.

monomer_sequence=LNISGYNFSL subject_of_test=HLA-A*02:02 recorded_measurement=7.80
monomer_sequence=LLMEGLKLLS subject_of_test=HLA-A*02:02 recorded_measurement=7.11
monomer_sequence=LNQAVNNLV subject_of_test=HLA-A*02:02 recorded_measurement=6.29

Data request: Assign pIC50 to the following record: NCLSLLLSV
Data returned: 7.31

Data request: Assign pIC50 to the following record: SIINHKFCNL
Data returned: 6.61

Data request: Assign pIC50 to the following record: YCSNIKLQVV
Data returned: 5.91

Data request: Assign pIC50 to the following record: LLWDYMCIS
Data returned: 6.83

Data request: Assign pIC50 to the following record: LNCLSLLLSV
Data returned: 6.91

Data request: Assign pIC50 to the following record: FSTSFYLISI
Data returned: 8.68

Data request: Assign pIC50 to the following record: CNYSKYWYL
Data returned: 5.44

* * *

target: HLA-A*02:01; experiment: IEDB peptide-MHC binding, purified MHC/competitive/radioactivity; bounds were set here for any values at or beyond the usual limits of such assays; conditions: source organism: Vaccinia virus WR
Mark each entry Satisfied if its IC50 sits below 500 nM, and Not satisfied for all others.

Known results for sequences:
monomer_sequence=TLISSDGARV classification="Not satisfied"
monomer_sequence=FIQWTGGNI classification="Not satisfied"
monomer_sequence=KVFFGPIYYL classification=Satisfied

Data request: Dear colleague, could you confirm whether IC50 of GVMYAFTTPL falls below 500 nM? Thanks.
Data returned: Satisfied

Data request: Dear colleague, could you confirm whether IC50 of NAILHNIYRL falls below 500 nM? Thanks.
Data returned: Not satisfied

Data request: Dear colleague, could you confirm whether IC50 of NIPELKHGLL falls below 500 nM? Thanks.
Data returned: Not satisfied

Data request: Dear colleague, could you confirm whether IC50 of FVLALYSPPL falls below 500 nM? Thanks.
Data returned: Not satisfied

Data request: Dear colleague, could you confirm whether IC50 of DQTHIKTIAV falls below 500 nM? Thanks.
Data returned: Not satisfied

* * *

target: HLA-A*02:06; test: IEDB peptide-MHC binding, cellular MHC/competitive/fluorescence; bounds were set here for any values at or beyond the usual limits of such assays; details: source organism: Vaccinia virus WR
// bucketize IC50: low = under 10 µM, moderate = from 10 µM up to 30 µM, high = 30 µM and over

Known results for sequences:
monomer_sequence=EIRGVLPEET classification=moderate
monomer_sequence=SVGTGILFM classification=moderate

Data request: Note: place this sequence into its band. Item: QTLISLNSM
Data returned: low

Data request: Note: place this sequence into its band. Item: FASADNHPKM
Data returned: high

Data request: Note: place this sequence into its band. Item: SMTSDSKSI
Data returned: high

Data request: Note: place this sequence into its band. Item: GLTTHCTKL
Data returned: high

Data request: Note: place this sequence into its band. Item: AATKRYPGVM
Data returned: high

Data request: Note: place this sequence into its band. Item: LATLNTLIT
Data returned: moderate

Data request: Note: place this sequence into its band. Item: DTIAHINTL
Data returned: moderate

Data request: Note: place this sequence into its band. Item: ETKRNIARHL
Data returned: high
